Measured pKi, listed per entry for reference.
assayedTarget: Prothrombin (Homo sapiens, UniProt P00734)
protocolDescription: Inhibition of human thrombin
pKi: −log10 of the molar value.
property: pKi

[[record]]
molecule = "N=C(N)NCCC[C@H]1NC(=O)[C@H]2CCCN2C(=O)[C@H](Cc2ccccc2)NC(=O)CCCCCCCNC(=O)C1=O (single isomer, unassigned)"
readoutvalue = 7.62

[[record]]
molecule = "N=C(N)NCCC[C@H]1NC(=O)[C@H]2CCCN2C(=O)[C@H](Cc2ccccc2)NC(=O)CCCCCNC(=O)[C@H](CC(c2ccccc2)c2ccccc2)NC(=O)C1=O (single isomer, unassigned)"
readoutvalue = 8.28

[[record]]
molecule = "N=C(N)NCCC[C@H]1NC(=O)[C@H]2CCCN2C(=O)[C@H](c2ccccc2)NC(=O)CCCCCCCNC(=O)C1=O (single isomer, unassigned)"
readoutvalue = 6.79

[[record]]
molecule = "N=C(N)NCCC[C@H]1NC(=O)[C@H]2CCCN2C(=O)[C@H](Cc2ccccc2)NC(=O)CCCCCCNC(=O)C1=O (single isomer, unassigned)"
readoutvalue = 5.74

[[record]]
molecule = "N=C(N)NCCC[C@H]1NC(=O)[C@H]2CCCN2C(=O)[C@H](Cc2ccccc2)NC(=O)CCCCCCCCCCNC(=O)C1=O (single isomer, unassigned)"
readoutvalue = 7.82

[[record]]
molecule = "N=C(N)NCCC[C@H]1NC(=O)[C@H]2CCCCN2C(=O)[C@H](Cc2ccccc2)NC(=O)CCCCCCCNC(=O)C1=O (single isomer, unassigned)"
readoutvalue = 7.07

